- Measured On: hCRTH2 (Homo sapiens, UniProt Q9Y5Y4)
- Construct: expressed in transfected cells; host or cells: HEK (human embryonic kidney) cells expressing hCRTH2; membrane preparation
- Sequence (Q9Y5Y4 1-395): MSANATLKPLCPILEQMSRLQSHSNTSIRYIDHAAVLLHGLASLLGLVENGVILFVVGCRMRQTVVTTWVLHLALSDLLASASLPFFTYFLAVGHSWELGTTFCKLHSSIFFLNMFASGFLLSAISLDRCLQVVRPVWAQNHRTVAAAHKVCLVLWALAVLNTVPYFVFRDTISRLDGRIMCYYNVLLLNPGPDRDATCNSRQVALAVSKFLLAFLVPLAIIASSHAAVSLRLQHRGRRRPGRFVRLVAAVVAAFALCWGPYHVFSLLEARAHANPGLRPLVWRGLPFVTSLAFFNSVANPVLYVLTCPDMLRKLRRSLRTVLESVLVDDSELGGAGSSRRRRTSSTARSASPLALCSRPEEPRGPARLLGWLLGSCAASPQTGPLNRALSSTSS
- Assay Comment: Radioligand binding assay ([3H]PGD2 competition, HEK-hCRTH2 membranes)
- Measurement Context: [3H]PGD2 competition, Table B
pKi: −log10 of the molar value.
Reported Metric: pKi

Compound: CC(CCCc1nc2cc(C(=O)N[C@@H]3CCCc4cc(Cl)ccc43)ccc2nc1-c1ccc(F)cc1)C(=O)O (stereo partly shown)
Measured On: hCRTH2 (Homo sapiens, UniProt Q9Y5Y4)
Experimental Value: 7.70 to 8.68

Compound: Cc1cnccc1N1CCN(C(=O)c2ccc3nc(-c4ccc(Cl)cc4)c(CCCCC(=O)O)nc3c2)CC1
Measured On: hCRTH2 (Homo sapiens, UniProt Q9Y5Y4)
Experimental Value: 7.70 to 8.68

Compound: Cc1ccc(N2CCN(C(=O)c3ccc4nc(-c5ccc(Cl)cc5)c(CCCCC(=O)O)nc4c3)CC2)cc1C
Measured On: hCRTH2 (Homo sapiens, UniProt Q9Y5Y4)
Experimental Value: 8.70 to 10.00

Compound: O=C(O)CCCCc1nc2cc(C(=O)N3CCN(c4ccncc4)CC3)ccc2nc1-c1ccc(Cl)cc1
Measured On: hCRTH2 (Homo sapiens, UniProt Q9Y5Y4)
Experimental Value: 6.15 to 6.70

Compound: C[C@H](NC(=O)c1ccc2nc(-c3ccc(Cl)cc3)c(CCCCC(=O)O)nc2c1)c1cncc2ccccc12
Measured On: hCRTH2 (Homo sapiens, UniProt Q9Y5Y4)
Experimental Value: 7.70 to 8.68

Fill in pKi for each of the 2 compounds listed.
1. COc1ccc2c(c1)CCCC2NC(=O)c1ccc2nc(-c3ccc(Cl)cc3)c(CCCCC(=O)O)nc2c1 (stereo not shown)
2. O=C(O)CCCCc1nc2cc(C(=O)NC3CCC(=O)Nc4ccccc43)ccc2nc1-c1ccc(Cl)cc1 (stereo not shown)

Result:
1. 7.70 to 8.68
2. 7.70 to 8.68

====

- Measured On: hCRTH2 (Homo sapiens, UniProt Q9Y5Y4)
- Construct: expressed in transfected cells; host or cells: HEK (human embryonic kidney) cells expressing hCRTH2; membrane preparation
- Assay Comment: Radioligand binding assay ([3H]PGD2 competition, HEK-hCRTH2 membranes)
- Measurement Context: [3H]PGD2 competition, Table B
pKi: −log10 of the molar value.
Reported Metric: pKi

Input Smiles: O=C(O)CCCCc1nc2cc(C(=O)N[C@H](CO)c3ccc(F)cc3)ccc2nc1-c1ccccc1
Experimental Value: 6.70 to 7.70
--
Input Smiles: O=C(O)CCCCc1nc2cc(C(=O)N3CCN(Cc4cccc(F)c4)CC3)ccc2nc1-c1ccc(Cl)cc1
Experimental Value: 7.70 to 8.68

Proceeding to the next compound to report its pKi.
pKi reading for Cc1cccc(C)c1N1CCN(C(=O)c2ccc3nc(-c4ccc(Cl)cc4)c(CCCCC(=O)O)nc3c2)CC1 : 8.70 to 10.00
